Origin of the recorded values: patent US4906666A

- Tested on: passively sensitized strip of pulmonary parenchyma (guinea pig)
- test method notes: Inhibition of the antigen-induced constriction on the passively sensitized strip of pulmonary parenchyma, Superfusion
- Format: cell-based
- setup conditions: Cavia porcellus, concentration 20 μM
Classify as follows. Reported inhibition at 20 µM greater than or equal to 40%: fulfilled. Reported inhibition at 20 µM below: not fulfilled.

Below are worked cases with known answers.
| compound | answer label |
| --- | --- |
| CCCCCC(O)c1cccc(OCC(O)CSCCCC(=O)NO)c1 (stereo not drawn) | not fulfilled |
| CCCCCC(O)c1cccc(OCC=CCSCCC(=O)N(C)O)c1 (stereo not drawn) | fulfilled |
| CCCc1c(OCCCSCCC(=O)ONC2CCCCC2)ccc(C(C)=O)c1O | not fulfilled |

Check the entry CCCCCC(O)c1cccc(OCC(O)CSCCCC(=O)Nc2nn[nH]n2)c1 (stereo not drawn) : does inhibition at 20 µM equal or exceed 40%?
fulfilled

Check the entry `CCCc1c(OCCCSCCCCCc2nn[nH]n2)ccc(C(C)=O)c1O` : does inhibition at 20 µM equal or exceed 40%?
fulfilled

Check the entry CCCCCC(O)c1cccc(OCCCSCCCC(=O)N(C)O)c1 (stereo not drawn) : does inhibition at 20 µM equal or exceed 40%?
fulfilled

Check the entry `CCCc1c(OCCCCSCC(=O)N(C)O)ccc(C(C)=O)c1O` : does inhibition at 20 µM equal or exceed 40%?
fulfilled

Check the entry CCCCCC(O)c1cccc(OCCCSCCCC(=O)Nc2nn[nH]n2)c1 (stereo not drawn) : does inhibition at 20 µM equal or exceed 40%?
not fulfilled

---

- Tested on: passively sensitized strip of pulmonary parenchyma (guinea pig)
- test method notes: Inhibition of the antigen-induced constriction on the passively sensitized strip of pulmonary parenchyma, Superfusion
- Format: cell-based
- setup conditions: Cavia porcellus, concentration 20 μM
Each item that follows carries a reported inhibition at 20 µM.
Write the value in % as a bare number.

Recorded inhibition at 20 µM, per entry:
| compound | unit abbreviation | quantitative result |
| --- | --- | --- |
| CCCc1c(OCCCSCC(=O)N(C)O)ccc(C(C)=O)c1O | % | 39 |
| CCCCCC(O)c1cccc(OCCCCSCCC(=O)N(C)O)c1 (stereo not shown) | % | 33 |
| CCCCCC(O)c1cccc(OCC=CCSCCC(=O)Nc2nn[nH]n2)c1 (stereo not shown) | % | 26 |

Lab book: inhibition at 20 µM of `CCCc1c(OCCCSCCSc2nn[nH]n2)ccc(C(C)=O)c1O` noted as 29

Lab book: inhibition at 20 µM of `O=C(CCSCCCOc1ccc(Cl)c(Cl)c1)Nc1nn[nH]n1` noted as 75

Lab book: inhibition at 20 µM of `CCCc1c(OCCCCSCCC(=O)N(C)O)ccc(C(C)=O)c1O` noted as 72

Lab book: inhibition at 20 µM of `CCCCCc1ccccc1OCCCSCCc1nn[nH]n1` noted as 13
